This collection of values is drawn from ChEMBL document CHEMBL1130608.

- Tested on: PC-3
- PROCEDURE TEXT: In vitro anticancer activity against PC-3 prostate cancer cell line
- Assay type: functional
- RECORDED CONDITIONS: Homo sapiens
I'd be grateful if you could share measured GI50 for these entries.
One number for each entry, in µM.

// below: answered compounds
COMPOUND: C=C1CC(COc2ccc3ccccc3c2)(c2ccccc2)OC1=O (stereo unspecified)
GI50 [µM]: 6.46
//
COMPOUND: C=C1CC(COc2cccc3ccccc23)(c2ccccc2)OC1=O (stereo unspecified)
GI50 [µM]: 4.07

Go through the list and state GI50 for each entry.
1. C=C1CC(COc2cccc3cccnc23)(c2ccccc2)OC1=O (stereo unspecified)
2. C=C1CC(COc2cccc3ccc(C)nc23)(c2ccccc2)OC1=O (stereo unspecified)
3. C=C1CC(COc2ccc3cccc(O)c3n2)(c2ccccc2)OC1=O (stereo unspecified)

**Result**
1: 1.58; 2: 2.95; 3: 3.09

**Query** Can you share its GI50? I mean this compound: C=C1CC(COc2ccccc2)(c2ccccc2)OC1=O (stereo unspecified)
**Result** 2.14

* * *

- Test system: HOP-62
- PROCEDURE TEXT: In vitro anticancer activity against HOP-62 non-smallcell lung cancer cell line
- Format: functional
- RECORDED CONDITIONS: Homo sapiens
TEST READOUT: GI50
Your reply should be a number followed by the unit it is expressed in.

// below: answered compounds
COMPOUND: C=C1CC(COc2cccc3ccc(C)nc23)(c2ccccc2)OC1=O (centres undefined)
GI50: 3.24 µM
--
COMPOUND: C=C1CC(COc2ccc3cccc(O)c3n2)(c2ccccc2)OC1=O (centres undefined)
GI50: 2.14 µM

Go through the list and state GI50 for each entry.
1. C=C1CC(COc2ccccc2)(c2ccccc2)OC1=O (centres undefined)
2. C=C1CC(COc2cccc3cccnc23)(c2ccccc2)OC1=O (centres undefined)

**Result**
["14.8 µM", "5.13 µM"]

* * *

- Tested on: IGROV-1
- PROCEDURE TEXT: In vitro anticancer activity against IGROV1 ovarian cancer cell line
- Type: functional
- RECORDED CONDITIONS: Homo sapiens
The threshold is 2000 nM. Values of GI50 beneath it are tagged 1; values meeting or exceeding it are tagged 0.

Some solved entries appear below for comparison.
COMPOUND: C=C1CC(COc2ccccc2)(c2ccccc2)OC1=O (stereo unspecified)
CLASSIFICATION: 0
//
COMPOUND: C=C1CC(COc2cccc3ccc(C)nc23)(c2ccccc2)OC1=O (stereo unspecified)
CLASSIFICATION: 1
//
COMPOUND: C=C1CC(COc2ccc3ccccc3c2)(c2ccccc2)OC1=O (stereo unspecified)
CLASSIFICATION: 1
//
COMPOUND: C=C1CC(COc2ccc3cccc(O)c3n2)(c2ccccc2)OC1=O (stereo unspecified)
CLASSIFICATION: 1
//
COMPOUND: C=C1CC(COc2cccc3ccccc23)(c2ccccc2)OC1=O (stereo unspecified)
CLASSIFICATION: 1

# input for lookup
**Query** Field: below-cutoff. Rule: recorded GI50 strictly less than 2000 nM. Subject: C=C1CC(COc2cccc3cccnc23)(c2ccccc2)OC1=O (stereo unspecified)
**Result** 1
